Tested System: human Farnesoid X Receptor (FXR) ligand binding domain (GST-FXR LBD) (Homo sapiens)
Construct: purchased Invitrogen
Sequence (Q96RI1 193-472 isoform Q96RI1-2): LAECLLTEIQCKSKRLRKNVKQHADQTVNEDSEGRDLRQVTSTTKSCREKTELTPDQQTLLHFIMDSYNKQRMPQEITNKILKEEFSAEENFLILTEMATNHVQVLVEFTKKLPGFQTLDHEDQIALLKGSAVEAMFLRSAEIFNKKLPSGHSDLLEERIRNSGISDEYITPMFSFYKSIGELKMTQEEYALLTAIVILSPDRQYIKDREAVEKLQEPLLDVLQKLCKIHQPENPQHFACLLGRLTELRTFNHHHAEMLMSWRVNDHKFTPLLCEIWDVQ
Test Protocol: Human GST-FXR LBD co-activator interaction assay (HTRF)
Assay type: biochemical
Test Context: GST-FXR LBD / biotin-SRC-1 peptide FRET; response relative to GW4064; read-out: FXR Co-activator interaction assay (EC50)
Measure: EC50 (nM)

* O=C(O)c1cn2nc(N3[C@@H]4CC[C@H]3C[C@@H](OCc3c(-c5c(F)cccc5F)noc3C3CC3)C4)ccc2n1 | 10
* COC(=O)c1cnc(N2C3CC[C@H]2C[C@H](OCc2c(-c4ccccc4OC(F)(F)F)noc2C2CC2)C3)nc1 | 20
* O=C(O)CNC(=O)c1ccc2nc(N3C4CC[C@H]3C[C@H](OCc3c(-c5ccccc5OC(F)(F)F)noc3C3CC3)C4)sc2c1 | 0.6
* Cc1cc(N2C3CC[C@H]2CC(OCc2c(-c4c(F)cccc4F)noc2C2CC2)C3)ncc1C(=O)O (some centres unmarked) | 7
* O=C(O)c1cnc(N2C3CC[C@H]2C[C@H](OCc2c(C4CCCCC4C(F)(F)F)noc2C2CC2)C3)cn1 (some centres unmarked) | 110
* O=C(O)c1ccc(N2[C@@H]3CC[C@H]2C[C@@H](OCc2c(-c4ccccc4C4CC4)noc2C2CC2)C3)nc1 | 4
* O=C(O)c1ccc(N2[C@@H]3CC[C@H]2C[C@H](OCc2c(-c4ccccc4OC(F)(F)F)noc2C2CC2)C3)nc1 | 4
* COC(=O)c1cc(C)c2nc(N3C4CC[C@H]3CC(OCc3c(-c5ccccc5C(F)(F)F)noc3C3CC3)C4)sc2c1 (some centres unmarked) | 120
* Cc1cc(C(=O)O)nc(N2C3CC[C@H]2CC(OCc2c(-c4ccccc4Cl)noc2C2CC2)C3)n1 (some centres unmarked) | 19
* O=C(O)c1cccc(N2C3CC[C@H]2CC(OCc2c(-c4ccccc4C(F)(F)F)noc2C2CC2)C3)n1 (some centres unmarked) | 16
* NC(=O)c1ccc(N2C3CC[C@H]2C[C@H](OCc2c(-c4ccccc4OC(F)(F)F)noc2C2CC2)C3)nc1 | 3.8
* Cc1ccccc1-c1noc(C2CC2)c1CO[C@H]1C[C@H]2CC[C@@H](C1)N2c1ccc(C(=O)O)c(C)n1 | 220
* COC(=O)c1cnc(N2C3CC[C@H]2CC(OCc2c(-c4ccccc4OC(F)F)noc2C2CC2)C3)cc1Cl (some centres unmarked) | 56
* O=C(O)c1cnc(N2C3CC[C@H]2CC(OCc2c(-c4ccccc4C(F)(F)F)noc2C2CC2)C3)s1 (some centres unmarked) | 16
